# Test system: Equine rhinovirus
# Experiment Notes: Antiviral activity against Equine rhinovirus assessed as inhibition of virus-induced cytopathic effect at 33 degC after 48 hrs by two-fold dilution method

[
  {
    "Compound": "CCC(=O)C(CCCCCCc1ccc(Cl)cc1OC)C(=O)CC",
    "MIC": "3 µg/mL"
  },
  {
    "Compound": "CCC(=O)C(CCCCc1ccc(O)cc1)C(=O)CC",
    "MIC": "6 µg/mL"
  },
  {
    "Compound": "CCC(=O)C(CC/C(=C/CCc1ccc(C(=O)OC)cc1)CC)C(=O)CC",
    "MIC": "25 µg/mL"
  },
  {
    "Compound": "CCC(=O)C(CCC(CC)CCCc1ccc2c(c1)OCO2)C(=O)CC (stereo not given)",
    "MIC": "3 µg/mL"
  },
  {
    "Compound": "CCC(=O)C(CC/C(=C/CCc1ccc2c(c1)OCO2)CC)C(C)=O (stereo not given)",
    "MIC": "12 µg/mL"
  },
  {
    "Compound": "CCC(=O)C(CCCCCCc1ccc(Cl)cc1O)C(=O)CC",
    "MIC": "0.7 µg/mL"
  },
  {
    "Compound": "CCC(=O)C(CC/C(=C/C=C/c1ccc2c(c1)OCO2)CC)C(=O)CC",
    "MIC": "6 µg/mL"
  },
  {
    "Compound": "CCCC(=O)C(CC/C(=C/CCc1ccc2c(c1)OCO2)CC)C(=O)OCC (stereo not given)",
    "MIC": "12 µg/mL"
  },
  {
    "Compound": "CCC(=O)C(CCCCCCCCc1ccc(O)cc1)C(=O)CC",
    "MIC": "3 µg/mL"
  },
  {
    "Compound": "CCC(=O)C(CCCCCCc1ccc(O)c(O)c1)C(=O)CC",
    "MIC": "1.5 µg/mL"
  },
  {
    "Compound": "CC/C(=C\\CCc1ccc2c(c1)OCO2)CCC(C(C)=O)C(C)=O",
    "MIC": "6 µg/mL"
  },
  {
    "Compound": "CCC(=O)C(CCCCCCc1ccc(OC)cc1)C(=O)CC",
    "MIC": "3 µg/mL"
  },
  {
    "Compound": "CCC(=O)C(CC/C(C)=C/CCc1ccc2c(c1)OCO2)C(=O)CC",
    "MIC": "3 µg/mL"
  },
  {
    "Compound": "CC/C(=C\\CCc1ccc2c(c1)OCO2)CCC1CCCC1=O (stereo not given)",
    "MIC": "6 µg/mL"
  },
  {
    "Compound": "CCC(=O)C(CC/C=C/CCc1ccc2c(c1)OCO2)C(=O)CC",
    "MIC": "3 µg/mL"
  },
  {
    "Compound": "CCC(=O)C(CCCCCCc1ccc(OC(=O)c2cccc(OC)c2)cc1)C(=O)CC",
    "MIC": "3 µg/mL"
  },
  {
    "Compound": "CCC(=O)C(CCCCCCc1ccc(O)cc1)C(=O)CC",
    "MIC": "3 µg/mL"
  },
  {
    "Compound": "CCC(=O)C(CCCCCCc1ccc(Cl)cc1)C(=O)CC",
    "MIC": "1.5 µg/mL"
  },
  {
    "Compound": "CCC(=O)C(CC/C=C/CCc1ccc(OCc2ccccc2)cc1)C(=O)CC",
    "MIC": "3 µg/mL"
  },
  {
    "Compound": "CCC(=O)C(CC/C(=C/CCc1ccc2c(c1)OCO2)CC)C(=O)CC",
    "MIC": "6 µg/mL"
  },
  {
    "Compound": "CCC(=O)C(CCCCCCc1ccc(OC(=O)c2cccc(C)c2)cc1)C(=O)CC",
    "MIC": "3 µg/mL"
  },
  {
    "Compound": "CCC(=O)C(CCCCCCc1ccc(Cl)cc1Cl)C(=O)CC",
    "MIC": "3 µg/mL"
  },
  {
    "Compound": "CCC(=O)C(CCCCCCc1ccc(C)cc1)C(=O)CC",
    "MIC": "6 µg/mL"
  },
  {
    "Compound": "CCC(=O)C(CCCCCCc1cccc(O)c1)C(=O)CC",
    "MIC": "6 µg/mL"
  },
  {
    "Compound": "CCC(=O)C(CCCCCCc1ccc(OC(=O)c2ccc(C)cc2)cc1)C(=O)CC",
    "MIC": "12 µg/mL"
  },
  {
    "Compound": "CCC(=O)C(CCCCCCc1ccccc1OC)C(=O)CC",
    "MIC": "12 µg/mL"
  },
  {
    "Compound": "CCC(=O)C(CCCCCCc1ccccc1O)C(=O)CC",
    "MIC": "6 µg/mL"
  },
  {
    "Compound": "CCOC(=O)C(CC/C(=C/CCc1ccc2c(c1)OCO2)CC)C(C)=O (stereo not given)",
    "MIC": "6 µg/mL"
  },
  {
    "Compound": "CCC(=O)C(CC/C=C/CCc1ccc(OC(F)(F)F)cc1)C(=O)CC",
    "MIC": "6 µg/mL"
  },
  {
    "Compound": "CCC(=O)C(CCCCCCc1ccc(OC(F)(F)F)cc1)C(=O)CC",
    "MIC": "6 µg/mL"
  },
  {
    "Compound": "CCC(=O)C(CCCCCCCc1ccc(O)cc1)C(=O)CC",
    "MIC": "6 µg/mL"
  },
  {
    "Compound": "CCC(=O)C(CC/C=C/CCc1cc(OC)c(OCc2ccccc2)c(OC)c1)C(=O)CC",
    "MIC": "6 µg/mL"
  },
  {
    "Compound": "CCC(=O)C(CCCCCCCCCCc1ccc(O)cc1)C(=O)CC",
    "MIC": "12 µg/mL"
  },
  {
    "Compound": "CCC(=O)C(CC/C=C/CCc1ccc(NC(C)=O)cc1)C(=O)CC",
    "MIC": "12 µg/mL"
  },
  {
    "Compound": "CCC(=O)C(CCCCCCc1ccc(OC(=O)c2ccccc2C)cc1)C(=O)CC",
    "MIC": "6 µg/mL"
  },
  {
    "Compound": "CCC(=O)C(CCCCCCc1ccccc1)C(=O)CC",
    "MIC": "6 µg/mL"
  },
  {
    "Compound": "CCC(=O)C(CCCCCCc1ccc2c(c1)OCO2)C(=O)CC",
    "MIC": "6 µg/mL"
  },
  {
    "Compound": "CCC(=O)C(CCCCCCc1ccc(OC(=O)c2cc(OC)c(OC)c(OC)c2)cc1)C(=O)CC",
    "MIC": "6 µg/mL"
  },
  {
    "Compound": "CCC(=O)C(CCCCCc1ccc(O)cc1)C(=O)CC",
    "MIC": "12 µg/mL"
  },
  {
    "Compound": "CCC(=O)C(CCCCCCc1ccc(OC(C)=O)cc1)C(=O)CC",
    "MIC": "6 µg/mL"
  }
]
